target: Poly [ADP-ribose] polymerase 2 (Homo sapiens, UniProt Q9UGN5); assay: Inhibition of human PARP2 using NAD+ as substrate at 5 nM incubated for 1 hr by ELISA relative to control
Sequence (Q9UGN5 whole entry): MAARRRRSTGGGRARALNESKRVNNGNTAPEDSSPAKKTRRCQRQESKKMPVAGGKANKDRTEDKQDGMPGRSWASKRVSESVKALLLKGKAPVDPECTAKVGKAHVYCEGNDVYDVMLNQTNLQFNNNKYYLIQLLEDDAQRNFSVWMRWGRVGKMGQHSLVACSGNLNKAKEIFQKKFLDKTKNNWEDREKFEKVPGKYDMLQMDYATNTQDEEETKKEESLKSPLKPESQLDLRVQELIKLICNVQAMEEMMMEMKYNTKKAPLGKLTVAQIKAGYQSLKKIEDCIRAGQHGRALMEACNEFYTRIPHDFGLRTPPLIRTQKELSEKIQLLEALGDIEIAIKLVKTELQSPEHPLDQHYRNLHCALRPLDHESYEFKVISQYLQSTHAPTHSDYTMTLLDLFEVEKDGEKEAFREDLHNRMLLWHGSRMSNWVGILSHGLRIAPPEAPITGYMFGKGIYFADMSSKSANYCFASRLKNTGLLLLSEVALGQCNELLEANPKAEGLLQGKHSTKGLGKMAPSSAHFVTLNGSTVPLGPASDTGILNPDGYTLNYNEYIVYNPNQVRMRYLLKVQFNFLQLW
For each entry below, report its inhibition value.
Value expressed in %; do not type the unit.

Please fill in: inhibition reported for O=C1NCCc2c(-c3ccc(CN4CCN(C(=O)C5CC5)CC4)cc3)[nH]c3cc(F)cc1c23 = 44.1

Please fill in: inhibition reported for CN1CCN(Cc2ccc(-c3[nH]c4cc(F)cc5c4c3CCNC5=O)cc2)CC1 = 42

Please fill in: inhibition reported for CC(C)(C)OC(=O)NC1CCN(Cc2ccc(-c3[nH]c4cc(F)cc5c4c3CCNC5=O)cc2)CC1 = 42.4

Please fill in: inhibition reported for O=C1NCCc2c(-c3cccc(CN4CCn5c(nnc5C(F)(F)F)C4)c3)[nH]c3cc(F)cc1c23 = 24.4

Please fill in: inhibition reported for NC1CCCN(Cc2cccc(-c3[nH]c4cc(F)cc5c4c3CCNC5=O)c2)C1 (stereo not given) = 13.1

Please fill in: inhibition reported for O=C(O)c1ccc(-c2[nH]c3cc(F)cc4c3c2CCNC4=O)cc1 = 48.1

Please fill in: inhibition reported for O=C1NCCc2c(-c3cccc(CN4CCN(C(=O)C5CC5)CC4)c3)[nH]c3cc(F)cc1c23 = 20.7

Please fill in: inhibition reported for COc1ccc(-c2[nH]c3cc(F)cc4c3c2CCNC4=O)cc1 = 49.4

Please fill in: inhibition reported for CC(C)(C)OC(=O)NC1CCN(Cc2cccc(-c3[nH]c4cc(F)cc5c4c3CCNC5=O)c2)CC1 = 40.7

Please fill in: inhibition reported for Cc1ccc(-c2[nH]c3cc(F)cc4c3c2CCNC4=O)cc1[N+](=O)[O-] = 54.6

Please fill in: inhibition reported for C[C@@H]1CN(Cc2ccc(-c3[nH]c4cc(F)cc5c4c3CCNC5=O)cc2)CCN1C(=O)OC(C)(C)C = 20.3

Please fill in: inhibition reported for CC(C)(C)OC(=O)NC1CCCN(Cc2cccc(-c3[nH]c4cc(F)cc5c4c3CCNC5=O)c2)C1 (stereo not given) = 43.2

Please fill in: inhibition reported for CN1CCN(Cc2cccc(-c3[nH]c4cc(F)cc5c4c3CCNC5=O)c2)CC1 = 29

Please fill in: inhibition reported for O=C(O)c1cccc(-c2[nH]c3cc(F)cc4c3c2CCNC4=O)c1 = 43.3

Please fill in: inhibition reported for CC(=O)N1CCN(Cc2cccc(-c3[nH]c4cc(F)cc5c4c3CCNC5=O)c2)CC1 = 30.4

Please fill in: inhibition reported for O=C1NCCc2c(-c3ccc(CN4CCN(c5ncccn5)CC4)cc3)[nH]c3cc(F)cc1c23 = 47

Please fill in: inhibition reported for CC(=O)N1CCN(Cc2ccc(-c3[nH]c4cc(F)cc5c4c3CCNC5=O)cc2)CC1 = 28.7

Please fill in: inhibition reported for Nc1cccc(-c2[nH]c3cc(F)cc4c3c2CCNC4=O)c1 = 58.9

Please fill in: inhibition reported for CNCc1ccc(-c2[nH]c3cc(F)cc4c3c2CCNC4=O)cc1 [RUCAPARIB] = 77.6

Please fill in: inhibition reported for Cc1cc(N2CCN(Cc3ccc(-c4[nH]c5cc(F)cc6c5c4CCNC6=O)cc3)CC2)n(-c2ccccc2)n1 = 29.7

Where do the numbers come from? From ChEMBL document CHEMBL5131383.
